Data provenance is ChEMBL document CHEMBL4513216.

Tested on: Plasmodium berghei
Assay: Screen against P. berghei liver stage (PbLuc), transformed with Luciferase, at 10uM
Type: functional, HepG2
Settings: tested at 10 uM
The whole screen tested about 69,000 compounds, of which about 8,600 (12%) showed an effect of 50% or more. Shown is part of a subset that was picked to be rich in strong results.
I would appreciate it if you labelled entries Condition met when INHIBITION is 10% or higher, otherwise Condition not met.

// known answers, use as guide
CC1CN(C)CCN1Cc1cccc(C(=O)N(C)C)c1 (configuration not stated) | Condition not met
CC(O)c1cn(Cc2ccc(Cl)cc2)nn1 (configuration not stated) | Condition met
Cc1ccc(C(CCNCCCN(C)C)C2CCOC(C)(C)C2)cc1 (configuration not stated) | Condition met
CC(Cn1ccnc1)NCc1cc(Br)c2c(c1)OCO2 (configuration not stated) | Condition not met
Cc1ccnc(C2CN(Cc3ccc(-c4ccccc4C(=O)O)o3)C2)n1 | Condition met

Given the entry CC(Cn1ccnc1)NC(=O)N1CCN(Cc2ccco2)CC1 (configuration not stated) , answer whether its INHIBITION meets or surpasses 10%.
Condition not met

Given the entry `CCC(=O)Nc1ccc2c(c1)CN(C(=O)c1ccco1)CC2` , answer whether its INHIBITION meets or surpasses 10%.
Condition not met

Given the entry `O=C(NCCN1CCCC1)C1(c2ccc(Cl)cc2)CCOCC1` , answer whether its INHIBITION meets or surpasses 10%.
Condition met

----------
Catalogue of INHIBITION readings, one per entry.
System: Plasmodium berghei
Assay: Screen against P. berghei liver stage (PbLuc), transformed with Luciferase, at 10uM
Type: functional, HepG2
Conditions: tested at 10 uM
Among all 69,000 compounds or so, about 8,600 (12%) showed an effect of 50% or more. This excerpt belongs to a sample that is enriched for strong results.
Lab book: enter the figure in %, no units written.

Reference set (8 entries):
Cc1csc(C2CCCN(C(=O)c3cccc4c3OCO4)C2)n1 (stereo unspecified) | 27.6
CC(C)CNC(=O)Nc1cccc(OCC#N)c1 | -8.4
Cc1nc(CN2CCOCC3(CCN(c4cnccn4)CC3)C2)cs1 | -11.6
Cn1cccc1C(=O)N1C[C@@H](OCc2cccnc2)[C@H]2OCCC[C@H]21 | 41.3
CC(=O)c1ccc(OCC(=O)c2cccn2C)cc1 | -175
c1cnn(-c2ccc(CCNC3CCN(C4CC4)C3)cc2)c1 (stereo unspecified) | 14.2
CS(=O)(=O)N1C[C@H]2CCCN(Cc3cccs3)[C@H]2C1 | 24.6
Cc1cc(C(=O)N2CCCC(n3cncn3)C2)c(C)n1CC1CC1 (stereo unspecified) | -41.6

Entry Cc1nc(CN2CCC3(CCCN(Cc4ccoc4)C3)C2=O)cs1 (stereo unspecified) has what INHIBITION?
-5.31

Entry `COCCC(=O)N[C@H]1CC[C@H](Nc2nccc(-c3ccncc3)n2)C1` has what INHIBITION?
61.5

Entry `CN(C)CCN1CCCC12CCN(C(=O)c1cccn1C)CC2` has what INHIBITION?
20.5

----------
Tested on: Plasmodium berghei
Assay: Screen against P. berghei liver stage (PbLuc), transformed with Luciferase, at 10uM
Assay type: functional, HepG2
Conditions: tested at 10 uM
Among all 69,000 compounds or so, about 8,600 (12%) showed an effect of 50% or more. The list comes from a sample in which strong results are over-represented; it also holds close analogues and randomly drawn compounds.
Catalogue of INHIBITION readings, one per entry.
Lab book: enter the figure in %, no units written.

Reference set (5 entries):
O=C([C@H]1CCCO1)N1Cc2nccn2CC(COc2cccnc2)C1 (stereo partly specified) | -30
CCCn1cc(-c2ccnc(NC3CCc4ccccc4C3)n2)c(C)n1 (stereo unspecified) | 89.6
O=C(Nc1ccccc1)N1CCC(n2cc3[nH]cccc-3c2=O)CC1 | 32
Cc1ccc(CN(C)C(=O)CN2CCCC(Cn3cncn3)C2)o1 (stereo unspecified) | 15.6
COCCN(Cc1ccco1)Cc1nc(-c2ccccc2)no1 | -10.1

Alright, here's another compound for you.
Identify the measured INHIBITION of CC(C)(C)n1ncc2c1NC(=O)CSC2c1ccsc1 (stereo unspecified) for Plasmodium berghei.
-14.7
